Entries annotated with measured optical density
# System under test: T1, human ACVR2A (human, UniProt P27037 20-135, limits assumed); further: test concentration or dose not given here
# T1 construct: also called activin receptor, type II A
# T1 sequence (P27037 20-135 limits assumed): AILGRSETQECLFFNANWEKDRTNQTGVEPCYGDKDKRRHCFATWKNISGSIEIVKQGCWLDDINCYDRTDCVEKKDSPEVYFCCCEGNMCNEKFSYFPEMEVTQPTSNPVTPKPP
# Method description: ELISA
Write down the numeric answer in OD and omit the unit.

Use the examples below as a reference point.
Binder	Unit of measure	optical density
376_C07 (antibody, V domains shown, VH and VL only) VH: EVQLLESGGGLVQPGGSLRLSCAASGFTFSSYSMNWVRQAPGKGLEWVSGINYNSGYKGYADSVKGRFTISRDNSKNTLYLQMNSLRAEDTAVYYCARSATWHDTHLDYWGQGTLVTVSS VL: DIQMTQSPSSLSASVGDRVTITCRASQSILSYVNWYQQKPGKAPKLLIYAATSRHSGVPSRFSGSGSGTDFTLTISSLQPEDFATYYCQQSYDLPLTFGGGTKVEIK	OD	3.7
369_H11 (antibody, V domains shown, VH and VL only) VH: EVQLLESGGGLVQPGGSLRLSCAASGFTFSDYGMNWVRQAPGKGLEWVSSINYNGGYTGYADSVKGRFTISRDNSKNTLYLQMNSLRAEDTAVYYCARSATWHDTHLDYWGQGTLVTVSS VL: DIQMTQSPSSLSASVGDRVTITCRASQSILSYLNWYQQKPGKAPKLLIYAATSRHSGVPSRFSGSGSGTDFTLTISSLQPEDFATYYCQQSYDLPLTFGGGTKVEIK	OD	1.45

We next turn to a different binder, shown below.
Reported optical density for 375_G10 (antibody, V domains shown, VH and VL only) VH: EVQLLESGGGLVQPGGSLRLSCAASGFTFSSYGMNWVRQAPGKGLEWVSSINYNGGYKSYADSVKGRFTISRDNSKNTLYLQMNSLRAEDTAVYYCARSATWHDTHLDYWGQGTLVTVSS VL: DIQMTQSPSSLSASVGDRVTITCRASQSIVTYLNWYQQKPGKAPKLVIYAATSRHSGVPSRFSGSGSGTDFTLTISSLQPEDFATYYCQQSYDTPLTFGGGTKVEIK was 3.48
